Biological target: CDK12 (Homo sapiens, UniProt Q9NYV4)
Construct: endogenous in cells; host or cells: CAL-120 human breast cancer cells (DSMZ ACC 459)
Sequence (Q9NYV4 whole entry): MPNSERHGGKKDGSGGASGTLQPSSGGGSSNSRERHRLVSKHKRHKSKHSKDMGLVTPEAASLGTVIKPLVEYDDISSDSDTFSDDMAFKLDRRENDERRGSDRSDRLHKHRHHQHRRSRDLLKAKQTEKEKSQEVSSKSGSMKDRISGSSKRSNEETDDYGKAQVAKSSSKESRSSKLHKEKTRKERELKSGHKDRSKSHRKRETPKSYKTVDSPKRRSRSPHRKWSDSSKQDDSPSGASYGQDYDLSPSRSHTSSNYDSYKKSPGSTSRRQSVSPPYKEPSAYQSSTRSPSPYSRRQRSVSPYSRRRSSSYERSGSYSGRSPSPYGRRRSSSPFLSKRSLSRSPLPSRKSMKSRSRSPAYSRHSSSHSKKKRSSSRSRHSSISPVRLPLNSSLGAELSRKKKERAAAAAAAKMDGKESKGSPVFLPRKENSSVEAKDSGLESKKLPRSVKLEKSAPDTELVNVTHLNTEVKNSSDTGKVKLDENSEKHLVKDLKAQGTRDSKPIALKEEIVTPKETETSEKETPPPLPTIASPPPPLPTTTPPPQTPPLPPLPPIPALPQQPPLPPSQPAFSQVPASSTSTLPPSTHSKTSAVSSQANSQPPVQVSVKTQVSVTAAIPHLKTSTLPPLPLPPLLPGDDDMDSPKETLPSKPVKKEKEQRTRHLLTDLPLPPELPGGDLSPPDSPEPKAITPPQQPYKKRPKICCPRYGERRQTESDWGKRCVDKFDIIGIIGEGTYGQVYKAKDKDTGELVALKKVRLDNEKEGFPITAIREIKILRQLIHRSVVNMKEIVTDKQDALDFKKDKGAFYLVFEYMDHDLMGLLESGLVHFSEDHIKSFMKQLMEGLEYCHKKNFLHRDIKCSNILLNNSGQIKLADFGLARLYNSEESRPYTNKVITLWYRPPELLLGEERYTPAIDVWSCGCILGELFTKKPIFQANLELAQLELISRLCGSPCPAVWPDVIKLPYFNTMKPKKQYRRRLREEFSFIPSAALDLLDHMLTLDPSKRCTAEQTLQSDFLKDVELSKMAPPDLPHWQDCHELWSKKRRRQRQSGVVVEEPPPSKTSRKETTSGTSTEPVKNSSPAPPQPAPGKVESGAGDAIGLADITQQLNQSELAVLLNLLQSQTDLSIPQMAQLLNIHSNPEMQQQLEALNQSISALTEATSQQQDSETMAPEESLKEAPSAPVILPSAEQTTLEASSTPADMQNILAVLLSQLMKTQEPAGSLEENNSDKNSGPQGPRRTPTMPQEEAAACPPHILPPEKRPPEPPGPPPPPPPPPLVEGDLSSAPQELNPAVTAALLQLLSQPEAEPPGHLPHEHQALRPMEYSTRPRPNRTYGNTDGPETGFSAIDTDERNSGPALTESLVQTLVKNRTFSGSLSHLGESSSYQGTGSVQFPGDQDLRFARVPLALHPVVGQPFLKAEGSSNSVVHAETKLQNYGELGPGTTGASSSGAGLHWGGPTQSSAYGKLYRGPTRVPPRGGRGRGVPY
Sequence (O75909 whole entry partner): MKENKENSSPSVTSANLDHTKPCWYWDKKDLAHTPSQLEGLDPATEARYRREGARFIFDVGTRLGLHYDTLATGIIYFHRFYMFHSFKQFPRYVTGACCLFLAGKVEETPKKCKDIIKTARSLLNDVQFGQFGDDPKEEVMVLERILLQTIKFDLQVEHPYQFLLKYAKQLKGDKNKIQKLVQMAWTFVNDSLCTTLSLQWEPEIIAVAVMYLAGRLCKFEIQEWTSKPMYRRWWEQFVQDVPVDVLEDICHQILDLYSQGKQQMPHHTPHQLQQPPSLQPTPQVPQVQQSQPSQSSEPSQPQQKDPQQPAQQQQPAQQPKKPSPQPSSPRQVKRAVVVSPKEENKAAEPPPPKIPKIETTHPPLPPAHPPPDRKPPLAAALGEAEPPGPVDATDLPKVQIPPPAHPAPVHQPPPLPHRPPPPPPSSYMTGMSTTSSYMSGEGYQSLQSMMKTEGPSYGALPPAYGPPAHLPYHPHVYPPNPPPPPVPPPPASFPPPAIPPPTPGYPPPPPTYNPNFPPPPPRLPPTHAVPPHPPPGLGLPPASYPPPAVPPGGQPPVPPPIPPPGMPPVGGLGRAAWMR
Assay: CDK12 nuclear protein level: immunofluorescence/high content analysis in CAL-120 cells
Type: cell-based
Settings: ratio of IC50 CDK12 hATP (2 mM ATP) to DC50 CDK12 (IF, CAL-120)
Protocol: 6. CDK12 Nuclear Protein Level: Immunofluorescence/High Content Analysis […] CAL-120 human breast cancer cells (DSMZ ACC 459) are seeded in 1536-well microtiter plates (800 cells per well) containing 50 nanoL of compounds in Dose-Response. […] Nuclear and cytoplasmic intensity as well as the nuclear/cytoplasmic intensity ratio is determined by automated image analysis using custom generated scripts (MetaXpress). […]
Measured (IC50 CDK12 high ATP) to (Degradation DC50 CDK12) ratio, listed per entry.

Past entries and their recorded results:
c1ccc2[nH]c(CNc3nn(C4CCOCC4)c4nc(C5CC5)cnc34)nc2c1 :: >238
COCCCn1nc(NCc2nc3ccccc3[nH]2)c2ncc(C3CC3)nc21 :: >123
CN1CCC(n2nc(NCc3nc4c(F)c(F)ccc4[nH]3)c3ncc(C4CC4)nc32)CC1 :: >2478
CN1CCC(n2nc(NCc3nc4cc(F)c(F)cc4[nH]3)c3ncc(C4CC4)nc32)CC1 :: >1376

Query COc1cccc2[nH]c(CNc3nn(C4CCOCC4)c4nc(C5CC5)cnc34)nc12 yields (IC50 CDK12 high ATP) to (Degradation DC50 CDK12) ratio of 1614

Query Cc1cccc2[nH]c(CNc3nn(C4CCN(C)CC4)c4nc(C5CC5)cnc34)nc12 yields (IC50 CDK12 high ATP) to (Degradation DC50 CDK12) ratio of >2344

Query O=CO.c1ccc(-n2nc(NCc3nc4ccccc4[nH]3)c3ncc(C4CC4)nc32)cc1 yields (IC50 CDK12 high ATP) to (Degradation DC50 CDK12) ratio of >455
